target: SARS-COV-2 3CLpro (having a P132H mutation, 3CLpro^P132H) (Severe acute respiratory syndrome coronavirus 2, UniProt P0DTD1, P3395H)
Format: biochemical
The molecules listed here are annotated with their Inhibition Rate ([Cpd.]=40 uM).
measured-endpoint: Inhibition Rate ([Cpd.]=40 uM)

molecule="CCc1ccccc1N(CC(=O)Nc1ccccc1C(=O)NC(C)CC)S(=O)(=O)c1ccccc1 (stereo not drawn)" result=0.54
molecule=Cc1c(C(=O)NCCC2=CCCCC2)sc2ncnc(N(C)c3ccccc3)c12 result=0.63
molecule=CC(=O)N1CCc2c(sc3c2c(=O)n(-c2ccccc2)c(=O)n3Cc2cc(C)ccc2C)C1 result=0.64

Cited source: paper PMC10444862
